- Target Desc: Microtubule-associated protein tau (Homo sapiens) (UniProt P10636)
- Sequence (P10636 561-689 P618L limits assumed): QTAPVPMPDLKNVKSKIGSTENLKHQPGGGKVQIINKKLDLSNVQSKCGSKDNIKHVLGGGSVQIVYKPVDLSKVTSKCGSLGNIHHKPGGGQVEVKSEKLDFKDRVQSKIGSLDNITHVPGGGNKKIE
- Protocol Details: qHTS for Inhibitors of Tau Fibril Formation, Thioflavin T Binding; further: nearly all actives have a fitted effect of over 55% in size
- Particulars: recombinant tau K18 P301L, heparin-induced fibrillization, ThT fluorescence; series mostly up to 57.4 µM
Screen size: about 270,000 compounds; about 5,800 (2.1%) were called active. About 16% were inconclusive and are not listed. The call rests on the fitted dose curve; in most records, active means well fitted inhibition curve with a large enough effect; inconclusive means small, poorly fitted or top-dose-only effect; inactive means flat fitted curve, though single readings scatter. The sample holds actives, similar compounds and a random draw of the others, so the mix is not that of the screen.
Your answer must be one of the following: label 1 = active, label 0 = inactive

> print(dat)
                    structure.smiles.string  label.class
1  Cn1c(=O)sc2cc(NS(=O)(=O)c3ccc(C(C)(C)C)cc3)ccc21      label 0

For this compound, state the assay outcome: COc1ccc(S(=O)(=O)N2CCOCC2)cc1C(=O)Nc1nc2ccccc2s1 label 0

For this compound, state the assay outcome: COc1ccc(N2CCN(c3ccc([N+](=O)[O-])nc3)CC2)cc1 label 1

For this compound, state the assay outcome: COc1cccc2sc(NNC(=O)c3nc4ccccc4s3)nc12 label 1

For this compound, state the assay outcome: COc1ccc(/C=C(/CC(=O)Nc2ccc(C)cc2)c2nc3ccccc3s2)cc1 label 0

====

- Target Desc: Microtubule-associated protein tau (Homo sapiens)
- Protocol Details: qHTS for Inhibitors of Tau Fibril Formation, Thioflavin T Binding; further: nearly all actives have a fitted effect of over 55% in size; further: potency means the concentration at half of the fitted maximal effect
- Particulars: recombinant tau K18 P301L, heparin-induced fibrillization, ThT fluorescence; series mostly up to 57.4 µM
About 5,800 (2.1%) of roughly 270,000 compounds were called active. Roughly 16% stayed inconclusive and do not appear here. For the sample, actives were picked, then their nearest neighbours and some compounds at random.
Quantity Name: Potency

The following molecules have reported results that may help.
> print(dat)
                                   molecule  quantity.name            result
1  CCc1ccc(S(=O)(=O)c2nnn3c2nc(N2CCN(CC)CC2)c2sccc23)cc1        Potency          inactive
2  O=[N+]([O-])c1cccc(-c2nnc3c4ccccc4c4ccccc4n23)c1        Potency          inactive
3  Cc1ccc(C2C3=C(Nc4[nH]n(-c5ccccc5)c(=O)c42)c2ccccc2C3=O)cc1 (stereo not given)        Potency  7.94 µM (active)
4  Cc1oc2ncnc(N3CCOCC3)c2c1C(=O)NCCc1ccccc1        Potency          inactive
5  O=C(NN=C1CCC(=NNC(=O)c2cccnc2)CC1)c1cccnc1        Potency  39.8 µM (active)
6       O=c1[nH]c2ccccc2n2c(-c3ccccc3)nnc12        Potency    10 µM (active)
7  Cc1ccc(Cl)cc1N1CCN(S(=O)(=O)c2cc3[nH]c(=O)c(=O)[nH]c3cc2C)CC1        Potency          inactive
8  CCC(=O)N1c2ccccc2CC1C(=O)N1CCN(c2ccccc2F)CC1 (stereo not given)        Potency          inactive

For record C/C(=N\NC(=O)c1cccnc1)c1ccc(-c2ccccc2)cc1 the listed Potency is inactive

For record CCOC(=O)c1cnc2[nH]c3ccccc3n2c1=O the listed Potency is inactive

====

- Target Desc: Microtubule-associated protein tau (Homo sapiens) (UniProt P10636)
- Protocol Details: qHTS for Inhibitors of Tau Fibril Formation, Thioflavin T Binding; further: nearly all actives have a fitted effect of over 55% in size
- Particulars: recombinant tau K18 P301L, heparin-induced fibrillization, ThT fluorescence; series mostly up to 57.4 µM
About 5,800 (2.1%) of roughly 270,000 compounds were called active. About 16% were inconclusive and are not listed. The call rests on the fitted dose curve; in most records, active means well fitted inhibition curve with a large enough effect; inconclusive means small, poorly fitted or top-dose-only effect; inactive means flat fitted curve, though single readings scatter. The full list was thinned out, with actives kept by preference.
Your answer must be one of the following: Y = active, N = inactive

These solved cases illustrate the format of a correct answer.
> print(dat)
                                   compound                               target.desc  label.class
1           Oc1ccc(N=Cc2c(O)ccc3ccccc23)cc1  Microtubule-associated protein tau (Homo sapiens) (UniProt P10636)            Y
2  CCc1ccc(NC(=O)C2CCCN2S(=O)(=O)c2ccc3nc(-c4ccccc4)[nH]c3c2)cc1 (stereo unspecified)  Microtubule-associated protein tau (Homo sapiens) (UniProt P10636)            N
3  COC(=O)c1cc(NC(=O)c2sc3ccccc3c2Cl)cc(C(=O)OC)c1  Microtubule-associated protein tau (Homo sapiens) (UniProt P10636)            N

For this compound, state the assay outcome: CS(=O)(=O)c1ccc2c(c1)SC1=NC(=O)/C(=C/c3ccco3)C(=N)N12 Y

For this compound, state the assay outcome: Cc1ccc(Nc2ccc3cc(S(=O)(=O)N4CCCCC4)ccc3n2)cc1F N

For this compound, state the assay outcome: Cc1cc(/C=C2/C(=N)N3C(=NC2=O)SN=C3S(C)(=O)=O)c(C)n1-c1ccccc1 N

For this compound, state the assay outcome: CCOc1ccc(N=C2NC(=O)S/C2=C\c2ccc(O)cc2)cc1 Y

====

- Target Desc: Microtubule-associated protein tau (Homo sapiens)
- Protocol Details: qHTS for Inhibitors of Tau Fibril Formation, Thioflavin T Binding; further: nearly all actives have a fitted effect of over 55% in size
- Particulars: recombinant tau K18 P301L, heparin-induced fibrillization, ThT fluorescence; series mostly up to 57.4 µM
The campaign covered roughly 270,000 compounds. About 5,800 (2.1%) were called active. Roughly 16% stayed inconclusive and do not appear here. Calls follow the shape of the dose curve; as a rule, active = well fitted inhibition curve with a large enough effect; inconclusive = small, poorly fitted or top-dose-only effect; inactive = flat fitted curve, though single readings scatter. Shown is part of a subset that was picked to be rich in actives.
Your answer must be one of the following: active, inactive

These solved cases illustrate the format of a correct answer.
> print(dat)
                                   compound  label.class
1  CCOc1ccc(NC(=O)c2c(NC(=O)Cc3ccccc3)sc3c2CCCCC3)cc1       active
2  COC(=O)c1scc(-c2ccccc2)c1S(=O)(=O)Nc1ccccc1     inactive
3  CC(=O)c1ccc(NC(=O)c2nc(-c3ccc(C)cc3)n3c2CCCCC3)cc1     inactive

For this compound, state the assay outcome: Cc1cccc(CC(=O)Nc2cccc(-c3cn4cccnc4n3)c2)c1 inactive

For this compound, state the assay outcome: O=C(Cc1ccccc1)Nc1sc2c(c1C(=O)Nc1ccc(Br)cc1)CCC2 inactive

For this compound, state the assay outcome: CCN1CCc2c(C#N)c(NCc3ccccc3)nc(NCCO)c2C1 active

For this compound, state the assay outcome: Cc1nn(C)c2c1c(C(F)(F)F)cc(=O)n2C(C)C(=O)NCc1ccc(Cl)cc1 (configuration not stated) inactive

For this compound, state the assay outcome: CC(C)(C)OC(=O)N1CCC(c2c(C(=O)N3CCc4ccccc4C3)cnn2-c2ccc(F)cc2)CC1 inactive

For this compound, state the assay outcome: CCc1nc(NCCO)c(C#N)c2c1CCCC2 inactive

====

- Target Desc: Microtubule-associated protein tau (Homo sapiens) (UniProt P10636)
- Protocol Details: qHTS for Inhibitors of Tau Fibril Formation, Thioflavin T Binding; further: nearly all actives have a fitted effect of over 55% in size
- Particulars: recombinant tau K18 P301L, heparin-induced fibrillization, ThT fluorescence; series mostly up to 57.4 µM
About 5,800 (2.1%) of roughly 270,000 compounds were called active. Another 16% or so got no clear call; they are omitted. Calls follow the shape of the dose curve; as a rule, active = well fitted inhibition curve with a large enough effect; inconclusive = small, poorly fitted or top-dose-only effect; inactive = flat fitted curve, though single readings scatter. What follows is part of a selection rich in actives, with near analogues and random picks from the rest.
Your answer must be one of the following: True = active, False = inactive

These solved cases illustrate the format of a correct answer.
> print(dat)
                                   compound  label.class
1  Cc1ccc(Cn2c(=O)n(Cc3nc(-c4ccccc4)no3)c(=O)c3cc4c(cc32)OCO4)cc1        False
2  CC(Nc1ccc(-c2nc(-c3ccco3)no2)cc1[N+](=O)[O-])c1ccccc1 (stereo not given)        False
3  Oc1ccc(/C=N/Nc2nc(-c3ccccc3F)nc3ccccc23)c(O)c1         True

For this compound, state the assay outcome: COc1ccc(Cl)cc1C(=O)NNC(=S)NC1CCCC1 False

For this compound, state the assay outcome: COc1ccc(Cl)cc1C(=O)NNC(=S)NC(=O)/C=C/c1ccco1 True

====

- Target Desc: Microtubule-associated protein tau (Homo sapiens) (UniProt P10636)
- Protocol Details: qHTS for Inhibitors of Tau Fibril Formation, Thioflavin T Binding; further: nearly all actives have a fitted effect of over 55% in size; further: potency means the concentration at half of the fitted maximal effect
- Particulars: recombinant tau K18 P301L (four-repeat tau fragment), heparin-induced fibrillization, ThT fluorescence; series mostly up to 57.4 µM
The whole screen tested about 270,000 compounds, of which about 5,800 (2.1%) were called active. Not shown: some 16% with an inconclusive outcome. Shown is part of a subset that was picked to be rich in actives.
Quantity Name: Potency

> print(dat)
                                   molecule            result
1    COc1ccc(/C=N/N=C2/C(=O)Nc3ccccc32)cc1O    10 µM (active)
2  Cc1[nH][nH]c(=O)c1C(c1ccc(-c2ccc(Cl)cc2)o1)c1c(C)[nH][nH]c1=O  7.08 µM (active)
3  O=C(NC(Cc1c[nH]c2ccccc12)C(=O)N/N=C/c1ccc(Br)cc1)c1cccs1 (centres undefined)          inactive
4       CCOc1ccc(/C=N/NC(=O)CSc2ccccn2)cc1O          inactive
